Origin of values: patent US10597388B2

Tested on: corn (Zea mays)
Assay protocol: Test C greenhouse herbicide test, pre- and postemergence
Type: in vivo
Run parameters: Postemergence, 125 g ai/ha; scale 0 to 100, 0 is no effect, 100 is complete control

{"Molecule": "CCc1oc2ccc(C)cc2c1-c1c(O)c(C)nn(C)c1=O [Compound 10]", "Plant response rating, Corn": 5}
{"Molecule": "Cc1nn(C)c(=O)c(-c2c(C)sc3ccc(Br)cc23)c1O [Compound 22]", "Plant response rating, Corn": 5}
{"Molecule": "CCc1sc2ccc(C)cc2c1-c1c(O)c(C)nn(C)c1=O [Compound 47]", "Plant response rating, Corn": 10}
{"Molecule": "CC(=O)Oc1c(C)nn(C)c(=O)c1-c1c(C)sc2ccc(Cl)cc12 [Compound 108]", "Plant response rating, Corn": 25}
{"Molecule": "COC(=O)Oc1c(C)nn(C)c(=O)c1-c1c(C)sc2ccc(C)cc12 [Compound 80]", "Plant response rating, Corn": 5}

---

Tested on: wheat (Triticum aestivum)
Assay protocol: Test A greenhouse herbicide test, pre- and postemergence
Type: in vivo
Run parameters: Postemergence, 500 g ai/ha; visual rating after approx. 10 d, 0 to 100 scale (0 no effect, 100 complete control)
Collected Plant response rating, Wheat values appear next to each entry.

{"Smiles input": "Cc1ccc2ccccc2c1-c1c(OC(=O)C(C)(C)C)c(C#N)nn(C)c1=O", "Plant response rating, Wheat": 0}
{"Smiles input": "COC(=O)Oc1c(C)nn(C)c(=O)c1-c1ccc(Br)c2ccccc12", "Plant response rating, Wheat": 30}
{"Smiles input": "COC(=O)Oc1c(C)nn(C)c(=O)c1-c1ccc(F)c2ccccc12", "Plant response rating, Wheat": 30}
{"Smiles input": "Cc1nn(C)c(=O)c(-c2c([N+](=O)[O-])ccc3ccccc23)c1O", "Plant response rating, Wheat": 0}
{"Smiles input": "Cc1ccc2ccccc2c1-c1c(O)c(C(F)(F)F)nn(C)c1=O", "Plant response rating, Wheat": 20}

---

Tested on: rice (Oryza sativa)
Assay protocol: Test B flooded paddy test
Format: in vivo
Run parameters: 250 g ai/ha, Flood; visual rating on scale of 0 to 100 where 0 is no effect and 100 is complete control; 13 to 15 d after treatment

{"Compound": "Cc1nn(C)c(=O)c(-c2c(C)sc3ccc(C(F)(F)F)cc23)c1O [Compound 121]", "Target desc": "rice (Oryza sativa)", "Plant response rating, Rice": 0}
{"Compound": "Cc1ccc2ccccc2c1-c1c(OC(=O)OC(C)C)c(C)nn(C)c1=O [Compound 72]", "Target desc": "rice (Oryza sativa)", "Plant response rating, Rice": 0}
{"Compound": "COC(=O)Oc1c(OC)nn(C)c(=O)c1-c1c(C)sc2ccc(Cl)cc12 [Compound 112]", "Target desc": "rice (Oryza sativa)", "Plant response rating, Rice": 0}

---

Collected Plant response rating, Waterhemp_RES2 values appear next to each entry.
Tested on: waterhemp_RES2 (ALS & HPPD resistant common waterhemp, Amaranthus rudis)
Assay protocol: Test E greenhouse herbicide test, postemergence
Format: in vivo
Run parameters: 125 g ai/ha, scale 0 to 100 (0 no effect, 100 complete control)
Measure: Plant response rating, Waterhemp_RES2

{"Smiles input": "Cc1nn(C)c(=O)c(-c2ccc(F)c3ccccc23)c1O", "Target desc": "waterhemp_RES2 (ALS & HPPD resistant common waterhemp, Amaranthus rudis)", "Observed": 80}
{"Smiles input": "Cn1nc(Br)c(O)c(-c2cccc3ccccc23)c1=O", "Target desc": "waterhemp_RES2 (ALS & HPPD resistant common waterhemp, Amaranthus rudis)", "Observed": 50}
{"Smiles input": "Cc1nn(C)c(=O)c(-c2cccc3ccc(Br)cc23)c1O", "Target desc": "waterhemp_RES2 (ALS & HPPD resistant common waterhemp, Amaranthus rudis)", "Observed": 70}
{"Smiles input": "Cc1ccc2sc(Br)c(-c3c(O)c(C)nn(C)c3=O)c2c1", "Target desc": "waterhemp_RES2 (ALS & HPPD resistant common waterhemp, Amaranthus rudis)", "Observed": 15}

---

System: ryegrass, Italian (Italian ryegrass, Lolium multiflorum)
Assay protocol: Test A greenhouse herbicide test, pre- and postemergence
Type: in vivo
Run parameters: Preemergence, 500 g ai/ha; 0 to 100 scale, 0 no effect, 100 complete control
Measure: Plant response rating, Ryegrass, Italian

{"Smiles input": "Cc1sc2ccccc2c1-c1c(O)cnn(C)c1=O", "Measure": "Plant response rating, Ryegrass, Italian", "Observed": 60}
{"Smiles input": "Cc1ccc2sc(C)c(-c3c(OC(=O)OC(C)C)c(C)nn(C)c3=O)c2c1", "Measure": "Plant response rating, Ryegrass, Italian", "Observed": 100}
{"Smiles input": "CCC(=O)Oc1c(C)nn(C)c(=O)c1-c1ccc(Cl)c2ccccc12", "Measure": "Plant response rating, Ryegrass, Italian", "Observed": 100}
{"Smiles input": "Cc1ccc2ccccc2c1-c1c(O)c(I)nn(C)c1=O", "Measure": "Plant response rating, Ryegrass, Italian", "Observed": 90}
{"Smiles input": "Cn1nc(Br)c(O)c(-c2cccc3ccccc23)c1=O", "Measure": "Plant response rating, Ryegrass, Italian", "Observed": 100}
{"Smiles input": "CCc1ccc2ccccc2c1-c1c(OC(=O)C2CC2)c(C)nn(C)c1=O", "Measure": "Plant response rating, Ryegrass, Italian", "Observed": 70}
{"Smiles input": "Cc1nn(C)c(=O)c(-c2ccc(F)c3ccccc23)c1O", "Measure": "Plant response rating, Ryegrass, Italian", "Observed": 100}
{"Smiles input": "COc1nn(C)c(=O)c(-c2c(C)ccc3ccc(C)cc23)c1O", "Measure": "Plant response rating, Ryegrass, Italian", "Observed": 50}
{"Smiles input": "Cc1ccc2c(c1)c(-c1c(O)c(C)nn(C)c1=O)c(C)n2C", "Measure": "Plant response rating, Ryegrass, Italian", "Observed": 0}
{"Smiles input": "CCc1sc2c(C)cc(C)cc2c1-c1c(O)c(C)nn(C)c1=O", "Measure": "Plant response rating, Ryegrass, Italian", "Observed": 100}

---

Collected Plant response rating, Foxtail, Giant values appear next to each entry.
Test system: foxtail, giant (giant foxtail, Setaria faberii)
Assay protocol: Test C greenhouse herbicide test, pre- and postemergence
Format: in vivo
Run parameters: Preemergence, 62 g ai/ha; scale 0 to 100, 0 is no effect, 100 is complete control

{"Smiles input": "Cc1nn(C)c(=O)c(-c2c(C)sc3ccc(C(F)(F)F)cc23)c1O", "Plant response rating, Foxtail, Giant": 55}
{"Smiles input": "Cc1nn(C)c(=O)c(-c2cccc3ccccc23)c1O", "Plant response rating, Foxtail, Giant": 35}
{"Smiles input": "CC(=O)Oc1c(C)nn(C)c(=O)c1-c1c(C)sc2ccc(C(F)(F)F)cc12", "Plant response rating, Foxtail, Giant": 70}
{"Smiles input": "CCCC(=O)Oc1c(C)nn(C)c(=O)c1-c1c(C)sc2ccc(C)cc12", "Plant response rating, Foxtail, Giant": 80}
{"Smiles input": "Cc1nn(C)c(=O)c(-c2ccc(Br)c3ccccc23)c1O", "Plant response rating, Foxtail, Giant": 45}

---

System: ryegrass, Italian (Italian ryegrass, Lolium multiflorum)
Assay protocol: Test A greenhouse herbicide test, pre- and postemergence
Format: in vivo
Run parameters: Preemergence, 500 g ai/ha; 0 to 100 scale where 0 is no effect and 100 is complete control
Collected Plant response rating, Ryegrass, Italian values appear next to each entry.

{"Compound": "CCC(=O)Oc1c(C)nn(C)c(=O)c1-c1c(C)ccc2ccccc12 [Compound 78]", "Target desc": "ryegrass, Italian (Italian ryegrass, Lolium multiflorum)", "Plant response rating, Ryegrass, Italian": 100}
{"Compound": "CCc1nn(C)c(=O)c(-c2c(C)oc3ccc(Cl)cc23)c1O [Compound 77]", "Target desc": "ryegrass, Italian (Italian ryegrass, Lolium multiflorum)", "Plant response rating, Ryegrass, Italian": 40}
{"Compound": "Cc1ccc2c(-c3c(O)c(C)nn(C)c3=O)c(C)ccc2c1 [Compound 110]", "Target desc": "ryegrass, Italian (Italian ryegrass, Lolium multiflorum)", "Plant response rating, Ryegrass, Italian": 80}
{"Compound": "CCCC(=O)Oc1c(C)nn(C)c(=O)c1-c1c(C)sc2ccc(C)cc12 [Compound 105]", "Target desc": "ryegrass, Italian (Italian ryegrass, Lolium multiflorum)", "Plant response rating, Ryegrass, Italian": 100}

---

Tested on: wheat (Triticum aestivum)
Assay protocol: Test A greenhouse herbicide test, pre- and postemergence
Type: in vivo
Run parameters: Postemergence, 500 g ai/ha; 0 to 100 scale, 0 is no effect, 100 is complete control
From the text: […]
Collected Wheat plant response rating values appear next to each entry.

{"Smiles input": "CCOc1ccc2cccc(-c3c(O)c(C)nn(C)c3=O)c2c1", "Wheat plant response rating": 0}
{"Smiles input": "Cc1sc2ccccc2c1-c1c(O)cnn(C)c1=O", "Wheat plant response rating": 0}
{"Smiles input": "Cc1sc2ccccc2c1-c1c(O)c(Cl)nn(C)c1=O", "Wheat plant response rating": 0}
{"Smiles input": "Cc1nn(C)c(=O)c(-c2ccc(Br)c3ccccc23)c1O", "Wheat plant response rating": 20}
{"Smiles input": "Cc1nn(C)c(=O)c(-c2cccc3ccc(I)cc23)c1O", "Wheat plant response rating": 0}
{"Smiles input": "CCC(=O)Oc1c(C)nn(C)c(=O)c1-c1c(C)ccc2ccccc12", "Wheat plant response rating": 60}
{"Smiles input": "Cc1cc(C)c2ccccc2c1-c1c(O)c(C)nn(C)c1=O", "Wheat plant response rating": 60}
{"Smiles input": "COc1ccc2sc(C)c(-c3c(O)c(C)nn(C)c3=O)c2c1", "Wheat plant response rating": 20}
